Target: T1, human CD3e/d (human, UniProt P07766 23-126; P04234 22-105)
T1 construct: Bought soluble protein; also called hCD3e/d; human CD3/ed (Sino CT038-H2508H)
T1 sequence (P07766 23-126, chain 1 of 2): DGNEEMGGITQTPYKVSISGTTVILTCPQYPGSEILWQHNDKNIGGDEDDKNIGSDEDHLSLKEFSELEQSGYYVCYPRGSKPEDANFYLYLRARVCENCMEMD
T1 sequence (P04234 22-105, chain 2 of 2): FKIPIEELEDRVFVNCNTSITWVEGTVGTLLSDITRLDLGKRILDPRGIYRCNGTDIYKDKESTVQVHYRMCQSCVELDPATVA
Assay: SPR (Carterra LSA), mAb on chip
Protocol: High-throughput surface plasmon resonance (SPR) coupled kinetic experiments were performed on a Carterra LSA® instrument equipped with an HC-30M chip type (Carterra, USA). The instrument uses two microfluidic modules, a single-flow cell (SFC) and a 96 printhead, to deliver samples to the chip surface via back-and-forth cycling of a fixed sample volume. […] The data were analyzed using the Carterra Kinetics analysis software. […]
pKd: −log10 of the molar value.
Examples of binders with documented pKd follow.
ASSAY ENDPOINT: pKd

{"BINDER": "mAb 261 (antibody, V domains shown, VH and VL only) VH: EVQLLESGGGFMQPGGSLRLSCAVSGFTFRTSSMAWVRQAPGKGLEWVSGIRGSGGRTYDAESVKGRFTISRDISKNTLYLQMNNLRAEDTAEYYCAKLYDYYNDFMDVWGKGTTVIVSA VL: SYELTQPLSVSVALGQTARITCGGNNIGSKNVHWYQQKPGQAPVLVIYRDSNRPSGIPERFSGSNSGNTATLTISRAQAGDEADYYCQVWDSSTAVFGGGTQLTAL", "ASSAY ENDPOINT": "pKd", "RECORDED RESULT": 7.80}
{"BINDER": "mAb 100 (antibody, V domains shown, VH and VL only) VH: QVQLVESGGGVVQPGRSLRLSCVASGFTFRGYGMHWVRQAPGKGLEWVAIIYYDGKNKYYADSVKGRFTISRDNSKNTLYLQMNSLRVEDTALYYCARGGGYNWFDPWGQGTLVTVSS VL: DIQMTQSPSSLSASVGDRVTITCRASQSISTYLNWYQQKPGKAPKLLIYTASSLQSGVPSRFSGSGSGTVFTLTISSLQPEDFAIYYCQRSYSPPFTFGPGTRLDIK", "ASSAY ENDPOINT": "pKd", "RECORDED RESULT": 7.69}
{"BINDER": "mAb 98 (antibody, V domains shown, VH and VL only) VH: QVHLVESGGDVVQPGRSLRLSCSASGFTFSGYGMHWVRQAPGKGLEWVALIYFDGRNKYYADSVKGRFTISRDNSKNTLYLQMNSLRAEDTAVYYCARGGGYNWFDPWGQGTLVTVSS VL: DIQMTQSPSSLSASVGDRVTITCRASQSINNYLNWYQQKPGKAPKLLIYLASSLQSGVPSRFSGSGSGTDFTLTISSLQPEDLATYYCQLSYSSPFTFGPGTKVDVK", "ASSAY ENDPOINT": "pKd", "RECORDED RESULT": 8.01}
